Exercise: state measured total protein half-life in vivo for each of the sequences provided.
test: total protein half-life in vivo (active degradation + dilution); higher = more stable protein; conditions: wild type E. coli NCM3722; growth: P-lim chemostat; doubling time 12 h
State just the number; it will be interpreted in h.

Please fill in: total protein half-life in vivo reported for MNFLAHLHLAHLAESSLSGNLLADFVRGNPEESFPPDVVAGIHMHRRIDVLTDNLPEVREAREWFRSETRRVAPITLDVMWDHFLSRHWSQLSPDFPLQEFVCYAREQVMTILPDSPPRFINLNNYLWSEQWLVRYRDMDFIQNVLNGMASRRPRLDALRDSWYDLDAHYDALETRFWQFYPRMMAQASRKAL = 3.73

The sequence listed as MWIGIISLFPEMFRAITDYGVTGRAVKNGLLSIQSWSPRDFTHDRHRTVDDRPYGGGPGMLMMVQPLRDAIHAAKAAAGEGAKVIYLSPQGRKLDQAGVSELATNQKLILVCGRYEGIDERVIQTEIDEEWSIGDYVLSGGELPAMTLIDSVSRFIPGVLGHEASATEDSFAEGLLDCPHYTRPEVLEGMEVPPVLLSGNHAEIRRWRLKQSLGRTWLRRPELLENLALTEEQARLLAEFKTEHAQQQHKHDGMA [P0A873] shows total protein half-life in vivo equal to 10.4

----------
assay: total protein half-life in vivo (active degradation + dilution); higher = more stable protein; settings: wild type E. coli NCM3722; growth: C-lim chemostat; doubling time 6 h
value-kind: total protein half-life in vivo (h)
Reply numerically in h, unit not repeated.

For record MNKFEDIRGVAFDLDGTLVDSAPGLAAAVDMALYALELPVAGEERVITWIGNGADVLMERALTWARQERATQRKTMGKPPVDDDIPAEEQVRILRKLFDRYYGEVAEEGTFLFPHVADTLGALQAKGLPLGLVTNKPTPFVAPLLEALDIAKYFSVVIGGDDVQNKKPHPDPLLLVAERMGIAPQQMLFVGDSRNDIQAAKAAGCPSVGLTYGYNYGEAIDLSQPDVIYQSINDLLPALGLPHSENQESKND the listed total protein half-life in vivo is 5.56

The sequence identified as MAAVNLRHIEIFHAVMTAGSLTEAAHLLHTSQPTVSRELARFEKVIGLKLFERVRGRLHPTVQGLRLFEEVQRSWYGLDRIVSAAESLREFRQGELSIACLPVFSQSFLPQLLQPFLARYPDVSLNIVPQESPLLEEWLSAQRHDLGLTETLHTPAGTERTELLSLDEVCVLPPGHPLAVKKVLTPDDFQGENYISLSRTDSYRQLLDQLFTEHQVKRRMIVETHSAASVCAMVRAGVGISVVNPLTALDYAASGLVVRRFSIAVPFTVSLIRPLHRPSSALVQAFSGHLQAGLPKLVTSLDAILSSATTA registered its total protein half-life in vivo at 6.28

----------
Field: total protein half-life in vivo. Provide a value for each of the sequences that follow.
experiment: total protein half-life in vivo (active degradation + dilution); higher = more stable protein; conditions: wild type E. coli NCM3722; growth: C-lim chemostat; doubling time 12 h
API: value field is a number in h; no unit string.

// total protein half-life in vivo value for MVKLAFPRELRLLTPSQFTFVFQQPQRAGTPQITILGRLNSLGHPRIGLTVAKKNVRRAHERNRIKRLTRESFRLRQHELPAMDFVVVAKKGVADLDNRALSEALEKLWRRHCRLARGS [P0A7Y8] : 8.06

// total protein half-life in vivo value for MDLASLRAQQIELASSVIREDRLDKDPPDLIAGADVGFEQGGEVTRAAMVLLKYPSLELVEYKVARIATTMPYIPGFLSFREYPALLAAWEMLSQKPDLVFVDGHGISHPRRLGVASHFGLLVDVPTIGVAKKRLCGKFEPLSSEPGALAPLMDKGEQLAWVWRSKARCNPLFIATGHRVSVDSALAWVQRCMKGYRLPEPTRWADAVASERPAFVRYTANQP : 11.3

MKILVIGPSWVGDMMMSQSLYRTLQARYPQAIIDVMAPAWCRPLLSRMPEVNEAIPMPLGHGALEIGERRKLGHSLREKRYDRAYVLPNSFKSALVPFFAGIPHRTGWRGEMRYGLLNDVRVLDKEAWPLMVERYIALAYDKGIMRTAQDLPQPLLWPQLQVSEGEKSYTCNQFSLSSERPMIGFCPGAEFGPAKRWPHYHYAELAKQLIDEGYQVVLFGSAKDHEAGNEILAALNTEQQAWCRNLAGETQLDQAVILIAACKAIVTNDSGLMHVAAALNRPLVALYGPSSPDFTPPLSHKARVIRLITGYHKVRKGDAAEGYHQSLIDITPQRVLEELNALLLQEEA has a reported total protein half-life in vivo of 11.7

get_value(item= MSTIEERVKKIIGEQLGVKQEEVTNNASFVEDLGADSLDTVELVMALEEEFDTEIPDEEAEKITTVQAAIDYINGHQA [P0A6A8] , readout=total protein half-life in vivo) returns 8.88

----------
test: total protein half-life in vivo (active degradation + dilution); higher = more stable protein; settings: E. coli NCM3722 delta-hslV; growth: N-lim chemostat; doubling time 6 h
Record form. Attribute: total protein half-life in vivo. Fill in for each entry.

Summary for this sequence, MIEIESRELADIPVLHAYPVGQKDTPLPCVIFYHGFTSSSLVYSYFAVALAQAGLRVIMPDAPDHGSRFSGDAARRLNQFWQILLQSMQEFTTLRAAIAEENWLLDDRLAVGGASMGAMTALGITARHPTVRCTASMMGSGYFTSLARSLFPPLIPETAAQQNEFNNIVAPLAEWEATNHLEQLSDRPLLLWHGLDDDVVPADESLRLQQALSETGRDKLLTCSWQPGVRHRITPEALDAAVTFFRQHL : total protein half-life in vivo is 4.06 h

Sample MLIFEGKEIETDTEGYLKESSQWSEPLAVVIAENEGISLSPEHWEVVRFVRDFYLEFNTSPAIRMLVKAMANKFGEEKGNSRYLYRLFPKGPAKQATKIAGLPKPVKCI [P0AB18] ; total protein half-life in vivo observed: 4.08 h

Per the records, this sequence ( MTHDNKLQVEAIKRGTVIDHIPAQIGFKLLSLFKLTETDQRITIGLNLPSGEMGRKDLIKIENTFLSEDQVDQLALYAPQATVNRIDNYEVVGKSRPSLPERIDNVLVCPNSNCISHAEPVSSSFAVRKRANDIALKCKYCEKEFSHNVVLAN [P0A7F3] ) has total protein half-life in vivo equal to 5.27 h

response.value for MGFKCGIVGLPNVGKSTLFNALTKAGIEAANFPFCTIEPNTGVVPMPDPRLDQLAEIVKPQRTLPTTMEFVDIAGLVKGASKGEGLGNQFLTNIRETEAIGHVVRCFENDNIIHVSGKVNPADDIEVINTELALADLDTCERAIHRVQKKAKGGDKDAKAELAVLEKCLPQLENAGMLRALDLSAEEKAAIRYLSFLTLKPTMYIANVNEDGFENNPYLDQVREIAAKEGSVVVPVCAAVEADIAELDDEERDEFMQELGLEEPGLNRVIRAGYKLLNLQTYFTAGVKEVRAWTIPVGATAPQAAGKIHTDFEKGFIRAQTISFEDFITYKGEQGAKEAGKMRAEGKDYIVKDGDVMNFLFNV [P0ABU2] (field: total protein half-life in vivo) = 3.66 h

total protein half-life in vivo measured on MKSLQALFGGTFDPVHYGHLKPVETLANLIGLTRVTIIPNNVPPHRPQPEANSVQRKHMLELAIADKPLFTLDERELKRNAPSYTAQTLKEWRQEQGPDVPLAFIIGQDSLLTFPTWYEYETILDNAHLIVCRRPGYPLEMAQPQYQQWLEDHLTHNPEDLHLQPAGKIYLAETPWFNISATIIRERLQNGESCEDLLPEPVLTYINQQGLYR [P0A752] = 5 h

The sequence MLELNFSQTLGNHCLTINETLPANGITAIFGVSGAGKTSLINAISGLTRPQKGRIVLNGRVLNDAEKGICLTPEKRRVGYVFQDARLFPHYKVRGNLRYGMSKSMVDQFDKLVALLGIEPLLDRLPGSLSGGEKQRVAIGRALLTAPELLLLDEPLASLDIPRKRELLPYLQRLTREINIPMLYVSHSLDEILHLADRVMVLENGQVKAFGALEEVWGSSVMNPWLPKEQQSSILKVTVLEHHPHYAMTALALGDQHLWVNKLDEPLQAALRIRIQASDVSLVLQPPQQTSIRNVLRAKVVNSYDDNGQVEVELEVGGKTLWARISPWARDELAIKPGLWLYAQIKSVSITA showed total protein half-life in vivo equal to 6.25 h

The reported value for MGQRIPVTLGNIAPLSLRPFQPGRIALVCEGGGQRGIFTAGVLDEFMRAQFNPFDLYLGTSAGAQNLSAFICNQPGYARKVIMRYTTKREFFDPLRFVRGGNLIDLDWLVEATASQMPLQMDTAARLFDSGKSFYMCACRQDDYAPNYFLPTKQNWLDVIRASSAIPGFYRSGVSLEGINYLDGGISDAIPVKEAARQGAKTLVVIRTVPSQMYYTPQWFKRMERWLGDSSLQPLVNLVQHHETSYRDIQQFIEKPPGKLRIFEIYPPKPLHSIALGSRIPALREDYKLGRLCGRYFLATVGKLLTEKAPLTRHLVPVVTPESIVIPPAPVANDTLVAEVSDAPQANDPTFNNEDLA in terms of total protein half-life in vivo is 1.31 h

Form field total protein half-life in vivo, entry MNKTQLIDVIAEKAELSKTQAKAALESTLAAITESLKEGDAVQLVGFGTFKVNHRAERTGRNPQTGKEIKIAAANVPAFVSGKALKDAVK [P0ACF0] : 5.45 h

total protein half-life in vivo for MSLPMLQVALDNQTMDSAYETTRLIAEEVDIIEVGTILCVGEGVRAVRDLKALYPHKIVLADAKIADAGKILSRMCFEANADWVTVICCADINTAKGALDVAKEFNGDVQIELTGYWTWEQAQQWRDAGIGQVVYHRSRDAQAAGVAWGEADITAIKRLSDMGFKVTVTGGLALEDLPLFKGIPIHVFIAGRSIRDAASPVEAARQFKRSIAELWG is 2.68 h

The reported value for MPIRVPDELPAVNFLREENVFVMTTSRASGQEIRPLKVLILNLMPKKIETENQFLRLLSNSPLQVDIQLLRIDSRESRNTPAEHLNNFYCNFEDIQDQNFDGLIVTGAPLGLVEFNDVAYWPQIKQVLEWSKDHVTSTLFVCWAVQAALNILYGIPKQTRTEKLSGVYEHHILHPHALLTRGFDDSFLAPHSRYADFPAALIRDYTDLEILAETEEGDAYLFASKDKRIAFVTGHPEYDAQTLAQEFFRDVEAGLDPDVPYNYFPHNDPQNTPRASWRSHGNLLFTNWLNYYVYQITPYDLRHMNPTLD in terms of total protein half-life in vivo is 1.61 h

Entry MIRSMTAYARREIKGEWGSATWEMRSVNQRYLETYFRLPEQFRSLEPVVRERIRSRLTRGKVECTLRYEPDVSAQGELILNEKLAKQLVTAANWVKMQSDEGEINPVDILRWPGVMAAQEQDLDAIAAEILAALDGTLDDFIVARETEGQALKALIEQRLEGVTAEVVKVRSHMPEILQWQRERLVAKLEDAQVQLENNRLEQELVLLAQRIDVAEELDRLEAHVKETYNILKKKEAVGRRLDFMMQEFNRESNTLASKSINAEVTNSAIELKVLIEQMREQIQNIE ; total protein half-life in vivo = 4.15 h
